The values you see were collected from PubChem BioAssay (NCI).

# Test system: SF-268 CNS
# MEASUREMENT_DESCRIPTION: NCI tumour cell line growth inhibition, 48 h
Would you mind telling me the reported GI50 of each entry?

C[C@@H](Oc1cc(NS(=O)(=O)N2CCC2)nc(SCc2cccc(F)c2F)n1)[C@@H](O)CO    > 100 µM

I'm hoping you can list GI50 for every compound here, please.
1. O=C(NC1CCN(Cc2ccccc2)CC1)c1cc(C(=O)NC2CCN(Cc3ccccc3)CC2)cc(C(=O)NC2CCN(Cc3ccccc3)CC2)c1
2. O=S(=O)(NCCCNc1cc(-c2cn(-c3ccccc3)nc2-c2cccc(O)c2)ccn1)c1cccc2ccccc12
3. COc1cc2c(=O)n(CCCn3ccnc3)c3c4cc5c(cc4ccc3c2cc1OC)OCO5

Ans:
["8.25 µM", "3.02 µM", "0.448 µM"]

I'm hoping you can list GI50 for every compound here, please.
1. CC1OC(O[C@H]2/C=C/C=C/C=C/C=C/C=C/C=C/C=C/[C@H](C)[C@@H](O)[C@@H](C)[C@H](C)OC(=O)C[C@H](O)C[C@H](O)CC[C@@H](O)[C@H](O)C[C@H](O)C[C@]3(O)C[C@H](O)[C@@H](C(=O)O)[C@H](C2)O3)C(O)C(N)C1O (some centres undefined)
2. NC(=O)c1cc(Cl)ccc1NC(=O)c1ccccc1-c1ccccc1
3. O=C1/C=C/[C@@H](O)[C@@H]2C[C@@H](O)C[C@H]2/C=C/CCC[C@H](CO)O1
4. COc1cccc(-c2nc(-c3ccc(NC(=O)c4ccccc4)cc3)[nH]c2-c2ccnc(Br)c2)c1
5. O=C1/C(=C/c2ccccc2)CN(CCC(=O)N2C/C(=C\c3ccccc3)C(=O)/C(=C/c3ccccc3)C2)C/C1=C\c1ccccc1

Ans:
1: 25.6 µM; 2: 5.38 µM; 3: 1.33 µM; 4: 6.13 µM; 5: 12.2 µM

I'm hoping you can list GI50 for every compound here, please.
1. CC1(C)CCC2(C(=O)O)CC[C@]3(C)C(=CCC4C5(C)CC[C@H](OC6OC(C(=O)O)C(O)C(OC7OC(CO)C(O)C(O)C7O)C6OC6OC(CO)C(O)C(O)C6O)C(C)(C)C5CCC43C)C2C1 (some centres undefined)
2. Cc1ccc2c(N/N=C\c3ccco3)cc(C)nc2n1
3. C/C=C1\C(=O)O[C@@H]2C1C[C@@H]1O[C@H]2[C@H](C)CCC/C(C)=C/CC[C@@]1(C)O (some centres undefined)
4. CNC(=O)c1cncc(/C=C/c2c(C)cccc2C)c1

Ans:
1. > 100 µM
2. 6.15 µM
3. 8.45 µM
4. > 25 µM

Q: Given the compound NCCCn1c2c(c3cc4c(cc3c1=O)OCO4)C(=O)c1ccccc1-2 , what is its reported GI50?
Ans: 3.75 µM

====

# System: SF-268 CNS
# MEASUREMENT_DESCRIPTION: NCI tumour cell line growth inhibition, 48 h
Would you mind telling me the reported TGI of each entry?

Look over these answered cases.
COc1cc2c(cc1OC)C(Cc1ccccc1CCCl)=NCC2    > 100 µM
CC(C)c1cccc(C(C)C)c1N=C(N)C#N    > 100 µM
COc1ccc(C(=O)C(Br)C(Br)C(=O)O)cc1 (stereo unspecified)    > 100 µM
COC(=O)c1cc2c3c(cc(O)c2[nH]1)N(C(=O)C1Cc2cc(OC)c(OC)c(OC)c2N1)CC3CCl (stereo unspecified)    0.646 µM

I'm hoping you can list TGI for every molecule here, please.
1. CCCC#CC(O)(C(=O)OC1CCN(C)CC1)C1CCCCC1 (stereo unspecified)
2. O=CC1OC(=O)c2cc(O)c(O)c(O)c2-c2c(cc(O)c(O)c2O)C(=O)OC1C(O)C(O)CO (stereo unspecified)

Ans:
1. > 100 µM
2. > 100 µM

====

# Test system: HS 578T breast
# MEASUREMENT_DESCRIPTION: NCI tumour cell line growth inhibition, 48 h
READOUT_LABEL: TGI (µM)
Give bare numbers, in µM.

Q: Given the molecule CC1OC(O[C@H]2/C=C/C=C/C=C/C=C/C=C/C=C/C=C/[C@H](C)[C@@H](O)[C@@H](C)[C@H](C)OC(=O)C[C@H](O)C[C@H](O)CC[C@@H](O)[C@H](O)C[C@H](O)C[C@]3(O)C[C@H](O)[C@@H](C(=O)O)[C@H](C2)O3)C(O)C(N)C1O (some centres not stated) , what is its reported TGI?
Ans: 27.7

====

# Tested on: SK-OV-3 ovarian
# MEASUREMENT_DESCRIPTION: NCI tumour cell line growth inhibition, 48 h; in the data active = GI50 below about 0.43 µM; inactive = the rest
Pick one and only one: active, inactive

CCN(CC)Cc1cc(Nc2ccnc3cc(Cl)ccc23)cc(-c2ccc(Cl)cc2)c1O    inactive
COC(=O)c1cc2c3c(cc(O)c2[nH]1)N(C(=O)C1Cc2cc(OC)c(OC)c(OC)c2N1)CC3CCl (stereo not given)    active
O=C1/C=C/[C@@H](O)[C@@H]2C[C@@H](O)C[C@H]2/C=C/CCC[C@H](CO)O1    inactive

Please turn your attention to the following entry.
Q: Which outcome was entered for the compound NCCCn1c2c(c3cc4c(cc3c1=O)OCO4)C(=O)c1ccccc1-2 in this test?
Ans: inactive

====

Would you mind telling me the reported TGI of each entry?
# System: A549 NSCLC
# MEASUREMENT_DESCRIPTION: NCI tumour cell line growth inhibition, 48 h

Look over these answered cases.
O=C(N/N=C\c1ccc([N+](=O)[O-])cc1)c1ccccc1Nc1ccccc1C(=O)N/N=C/c1ccc([N+](=O)[O-])cc1    > 100 µM
Cc1ccc([N+](=O)[O-])cc1S(=O)(=O)Nc1ccc(C2=NNC(c3cccs3)C2)cc1 (centres undefined)    > 100 µM
O=C1CC(c2ccc[nH]2)=NN1c1ccccc1    > 100 µM

I'm hoping you can list TGI for every compound here, please.
1. NCC1OC(n2cnc3c(=O)[nH]c(N)nc32)C(O)C1O (centres undefined)
2. CC(=O)O[C@H]1CCC2[C@@H]3CCC4Nc5c(cnn5-c5ccccc5)C[C@]4(C)C3CC[C@@]21C (some centres undefined)
3. O=C(/C=C\Nc1ccccc1O)C(Cl)(Cl)Cl

Ans:
1: > 100 µM; 2: 68.7 µM; 3: > 100 µM

I'm hoping you can list TGI for every compound here, please.
1. O=C(c1cc2c(C(F)(F)F)onc2c2ccccc12)C(F)(F)F
2. CC(C)NC(=O)OCc1c(COC(=O)NC(C)C)c(-c2ccc[n+](COC(=O)C3CC3)c2)n2c1CCC2
3. CCOC(=O)C1(C(=O)OCC)CC(=O)[C@@]2(C1)OCC[C@H]1OC(=O)C[C@H]12

Ans:
1. > 72.1 µM
2. > 100 µM
3. > 100 µM

====

# System: HCT-116 colon
# MEASUREMENT_DESCRIPTION: NCI tumour cell line growth inhibition, 48 h
READOUT_LABEL: GI50

C[C@@H](Oc1cc(NS(=O)(=O)N2CCC2)nc(SCc2cccc(F)c2F)n1)[C@@H](O)CO    > 100000 nM
N=C1C(c2nc3ccccc3s2)=C(O)CN1c1ccc(Cl)cc1Cl    4950 nM
C/C=C1\C(=O)O[C@@H]2C1C[C@@H]1O[C@H]2[C@H](C)CCC/C(C)=C/CC[C@@]1(C)O (stereo partly specified)    2810 nM
O=C(Nc1ccc(Cl)cc1)c1cc2cc(F)ccc2cc1O    963 nM
Oc1cccc(Cn2c(-c3cccc(O)c3O)nc3ccccc32)c1O    2240 nM

Q: Given the molecule O=C1C(Cl)=C(Nc2cccc(O)c2)C(=O)N1c1cccc(Cl)c1 , what is its reported GI50?
Ans: 21700 nM

====

# Tested on: A549 NSCLC
# MEASUREMENT_DESCRIPTION: NCI tumour cell line growth inhibition, 48 h
READOUT_LABEL: TGI

N#Cc1ccc(-c2nc3ccc(Cl)cc3[nH]2)cc1    > 100 µM
O=c1c(O)c(-c2cc(O)c(O)cc2O)oc2cc(O)c(C3OC(CO)C(O)C(O)C3O)c(O)c12 (stereo unspecified)    > 100 µM
CCn1cc(C(=O)N/N=C/c2cccc(F)c2)c(=O)c2cc(F)c(N3CCNC(C)C3)c(F)c21 (stereo unspecified)    3.29 µM
O=c1[nH]c2ccc(CC(=S)N3CCN(c4ccccc4)CC3)cc2o1    > 100 µM
C=C1SC(=Nc2ccccc2Cl)N(C(=O)c2sc3ccccc3c2Cl)C1(C)C    > 100 µM

I'm hoping you can list TGI for every compound here, please.
1. CSc1nncc2[nH]cnc12
2. Nn1c(SCC(=O)NCc2ccccc2)nc2ccccc2c1=O
3. COc1cc2ccnc3c2c(c1OC)CC1CC(O)C(OC)CC31 (stereo unspecified)
4. OCCN=C1c2ccccc2C2C(c3ccccc31)C1c3ccccc3C(=NCCO)c3ccccc3C21 (stereo unspecified)
5. CCN(CC)CCOC(=O)/C(=C/c1ccc(OC)cc1)c1cc(OC)c(OC)c(OC)c1
6. O=C(NC1CCN(Cc2ccccc2)CC1)c1cc(C(=O)NC2CCN(Cc3ccccc3)CC2)cc(C(=O)NC2CCN(Cc3ccccc3)CC2)c1
7. COc1cccc2c1C(=O)c1c(O)c3c(c(O)c1C2=O)C[C@@](O)(/C(C)=N/NC(=O)c1ccccc1)C[C@@H]3OC1CC(N)C(O)C(C)O1 (stereo partly specified)
8. Cc1ccc(C(=O)CCC2C(=O)CC(C)(C)CC2=O)cc1

Ans:
> 100 µM
> 100 µM
> 100 µM
93 µM
> 100 µM
15.4 µM
4.25 µM
> 100 µM
